Assay: Nonclinical pharmacokinetics in rats
Parameters: species or system rat
Settings: female, rat, in vivo, iv, t1/2 terminal
Experimental readout: half-life (min)
Only the number, expressed in min, is required.

Indicate the recorded half-life value for this substance: H-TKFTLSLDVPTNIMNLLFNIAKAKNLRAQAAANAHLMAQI-NH2 [SEQ ID NO: 1]
58.2

* * *

Assay: in vivo
Settings: dog, iv, 437 ng/kg/min
Experimental readout: level at 0.5 h
Remember to put the unit after the number in your answer.

Indicate the recorded level at 0.5 h value for this substance: H-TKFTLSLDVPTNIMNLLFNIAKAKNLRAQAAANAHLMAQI-NH2 [SEQ ID NO: 1]
67.1 ng/mL
